ASSAY SYSTEM: T1, human TNFR2 (Novoprotein, Catalog No. C830) (human, UniProt P20333 23-257, limits assumed)
T1 construct: construct not described; also called TNFR2 protein
T1 sequence (looked up): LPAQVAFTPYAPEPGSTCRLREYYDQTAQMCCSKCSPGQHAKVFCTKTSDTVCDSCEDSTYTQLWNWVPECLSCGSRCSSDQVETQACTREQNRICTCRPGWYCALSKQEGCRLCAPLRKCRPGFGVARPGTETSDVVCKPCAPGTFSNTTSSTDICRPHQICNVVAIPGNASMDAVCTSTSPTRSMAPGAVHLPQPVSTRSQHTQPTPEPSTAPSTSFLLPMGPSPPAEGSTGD
TEST DESCRIPTION: blocking ELISA, TNFα-biotin on coated human TNFR2, antibody 20 nM
MEASUREMENT TYPE: ELISA OD of antibodies to be tested (20 nM) (OD)
Answer with a number only, understood to be in OD.

Consider the worked cases shown below.
{"BINDER": "TNFR2 antibody #309 (antibody, V domains shown) VH: EVQLQESGAELVKPGASVKLSCKASGYTFTSYWIHWVKLRPGQGFEWIGEINPNNGGTDYNEKFKRKATLTVDKSSSTAYMELSSLTSEDSAIYYCTIDSMITTTWFAYWGQGTTVTVSS VL: EIVMTQSQKLMSTVVGDRVSVTCKASQNVGTNVAWFQQKPGQSPKALINSASYRYSGVPDRFTGSGSGTDFTLTISSVQSEDLAEYFCQQYNSYPFTFGSGTKLEIK", "VALUE": 0.34}
{"BINDER": "TNFR2 antibody #125 (antibody, V domains shown) VH: EVQLQESGGGLVQPGGSLNLSCAASGFAFSIYDLSWVRQTPEKRLEWVAYINNGGISTYYSDTVKGRFTISRDNAKNTLYLQMSSLKSEDTAMYYCVRGPFYGSANYFDYWGQGTTVTVSS VL: DIQMTQSPASLSLSVGETVTITCRASENIYSNLAWYQQKQGKSPQLLVYDATKLAEGVPSRFSGSESGTQYSLKINSLQSEDFGTYYCQHFWVTPWTFGGGTKLEIK", "VALUE": 0.161}

Query TNFR2 antibody #365 (antibody, V domains shown) VH: EVQLQESGPGLVQPSQSLSITCTVSGFSLTSYGVHWVRQSPGKGLEWLGLIWSDGSPDYSAAFISRLSINKDNSKSQVFFKMNSLQADDTAIYYCARNDDGGDYVMDYWGQGTTVTVSS VL: EIVLTQSPALMSASPGEKVTMTCSASSSVSYMYWYQQKPRSSPKPWIYLTSNLASGVPARFSGSGSGTSYSLTISSMEAEDAATYYCQQWTSNPLTFGAGTKLEIK yields ELISA OD of antibodies to be tested (20 nM) of 0.418

Query TNFR2 antibody #352 (antibody, V domains shown) VH: EVQLQESGPGLVAPSQSLSITCTVSGFSLTSYGVHWVRQPPGKGLEWLVVIWSDGGTTYNSALKSRLSISKDNSKSQVFLKMNSLQTDDTAMYYCARHDDDGYYAMDYWGQGTTVTVSS VL: DIVLTQSPSLMSASPGEKVTMTCSASSSVGYMYWYQQKPRSSPKPWIYLTSNLASGVPARFSGSGSGTSYSLTISSMEVEDAATYYCQQWSSDPFTFGSGTKLEIK yields ELISA OD of antibodies to be tested (20 nM) of 0.474
